Target: T1, GRAP2 SH2 domain (human, UniProt O75791 58-149)
T1 construct: GRAP2, human; source: bacterial expression, purified
T1 sequence (looked up): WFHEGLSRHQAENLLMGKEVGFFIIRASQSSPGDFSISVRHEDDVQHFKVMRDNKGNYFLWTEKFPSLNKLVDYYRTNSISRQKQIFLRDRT
Test: peptide or protein array; SH2/PTB proteins spotted on aldehyde slides, rhodamine peptide titrated in buffer B (20 mM HEPES, 100 mM KCl, 0.1% Tween-20, 5 mM DTT, pH 7.8), 1 h at room temperature; replicate assays
Conditions: both partners purified
Non-standard residues stand in square brackets, D forms with d. No end group written: not given here. pY = N[C@@H](Cc1ccc(OP(=O)(O)O)cc1)C(=O)O; Rhodamine = not defined here
outcome_measure: pKd
// pKd here means minus log10 of the molar concentration (mol/L)

query: Report pKd for Rhodamine-ETDG[pY]VAPLTCSD (reading uncertain) [ErbB2 pY1127 phosphopeptide, rhodamine-labelled, for protein microarrays] please.
result: 4.71
